Origin of measurements: patent US20250197488A1

# tested.on: T1, human IL-11 (AAH12506.1, Pro22-Leu199) (human, UniProt P20809 22-199)
# T1 construct: The range Pro22-Leu199 counts on AAH12506.1; The Octet runs say only 'human IL-11'; also called hIL-11
# T1 chain: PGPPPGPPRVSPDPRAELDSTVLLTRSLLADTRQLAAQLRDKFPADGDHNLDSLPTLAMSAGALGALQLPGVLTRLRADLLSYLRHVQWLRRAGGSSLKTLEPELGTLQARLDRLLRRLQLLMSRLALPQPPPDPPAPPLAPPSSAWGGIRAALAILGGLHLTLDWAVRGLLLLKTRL
# test.details: BLI (Octet), antibody captured, human IL-11 in solution
pKd: −log10 of the molar value.
Listed here: items and their measured pKd.
metric: pKd

binder: hz18A10-VH + hz18A10-VLm16 (antibody, V domains shown, Constant regions not restated for this antibody) VH: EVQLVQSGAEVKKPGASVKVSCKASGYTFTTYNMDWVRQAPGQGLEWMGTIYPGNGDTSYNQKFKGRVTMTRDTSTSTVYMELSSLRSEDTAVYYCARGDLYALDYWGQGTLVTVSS VL: DIQMTQSPSSLSASVGDRVTITCKASQSVSNDVAWYQQKPGKAPKLLIYRASRRYPGVPSRFSGSGSGTDFTFTISSLQPEDIATYYCQHDYSSPYTFGQGTKLEIK
reported.result: 8.71
//
binder: hz18A10-VHm2 + hz18A10-VLm11 (antibody, V domains shown, Constant regions not restated for this antibody) VH: EVQLVQSGAEVKKPGASVKVSCKASGYTFTTYNMDWVRQAPGQGLEWMGTIYPGNGDTSYNQKFKGRVTMTRDTSTSTVYMELSSLRSEDTAVYYCARGDLHYLDYWGQGTLVTVSS VL: DIQMTQSPSSLSASVGDRVTITCKASQSVSNDVAWYQQKPGKAPKLLIYRASNRYTGVPSRFSGSGSGTDFTFTISSLQPEDIATYYCQHDYSSPYTFGQGTKLEIK
reported.result: 9.00
//
binder: hz18A10-VHm16 + hz18A10-VLm19 (antibody, V domains shown, Constant regions not restated for this antibody) VH: EVQLVQSGAEVKKPGASVKVSCKASGYTFTHYDMDWVRQAPGQGLEWMGTIYPGNADTSYNQKFKGRVTMTRDTSTSTVYMELSSLRSEDTAVYYCARGDLYALDYWGQGTLVTVSS VL: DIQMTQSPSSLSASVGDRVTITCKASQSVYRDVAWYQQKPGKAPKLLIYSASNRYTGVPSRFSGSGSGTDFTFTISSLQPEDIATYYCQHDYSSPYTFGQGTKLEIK
reported.result: 10.02
//
binder: hz18A10-VH + hz18A10-VLm8 (antibody, V domains shown, Constant regions not restated for this antibody) VH: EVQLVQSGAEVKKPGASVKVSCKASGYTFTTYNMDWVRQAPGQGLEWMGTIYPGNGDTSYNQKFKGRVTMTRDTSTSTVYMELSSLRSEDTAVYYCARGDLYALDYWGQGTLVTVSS VL: DIQMTQSPSSLSASVGDRVTITCKASQSVYHDVAWYQQKPGKAPKLLIYSASNRYTGVPSRFSGSGSGTDFTFTISSLQPEDIATYYCQHDYSSPYTFGQGTKLEIK
reported.result: 9.10
//
binder: hz18A10-VHm4 + hz18A10-VLm9 (antibody, V domains shown, Constant regions not restated for this antibody) VH: EVQLVQSGAEVKKPGASVKVSCKASGYTFTTYNIDWVRQAPGQGLEWMGTIYPGNGDTSYNQKFKGRVTMTRDTSTSTVYMELSSLRSEDTAVYYCARGDLYALDYWGQGTLVTVSS VL: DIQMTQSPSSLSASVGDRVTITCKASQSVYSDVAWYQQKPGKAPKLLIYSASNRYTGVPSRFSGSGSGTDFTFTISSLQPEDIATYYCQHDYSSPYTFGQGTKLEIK
reported.result: 9.31
//
binder: hz18A10-VHm17 + hz18A10-VLm19 (antibody, V domains shown, Constant regions not restated for this antibody) VH: EVQLVQSGAEVKKPGASVKVSCKASGYTFTHYDMDWVRQAPGQGLEWMGTIYPGEGDTSYNQKFKGRVTMTRDTSTSTVYMELSSLRSEDTAVYYCARGDLYALDYWGQGTLVTVSS VL: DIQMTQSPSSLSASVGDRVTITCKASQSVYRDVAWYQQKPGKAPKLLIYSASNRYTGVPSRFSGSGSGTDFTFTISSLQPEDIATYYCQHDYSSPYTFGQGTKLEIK
reported.result: 11.15
//
binder: hz18A10-VH + hz18A10-VLm10 (antibody, V domains shown, Constant regions not restated for this antibody) VH: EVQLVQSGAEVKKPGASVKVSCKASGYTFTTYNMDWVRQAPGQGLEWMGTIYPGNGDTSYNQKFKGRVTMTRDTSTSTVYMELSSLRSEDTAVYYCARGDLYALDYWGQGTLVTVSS VL: DIQMTQSPSSLSASVGDRVTITCKASQSVSNDLAWYQQKPGKAPKLLIYSASNRYTGVPSRFSGSGSGTDFTFTISSLQPEDIATYYCQHDYSSPYTFGQGTKLEIK
reported.result: 8.39
//
binder: hz18A10-VHm15 + hz18A10-VLm19 (antibody, V domains shown, Constant regions not restated for this antibody) VH: EVQLVQSGAEVKKPGASVKVSCKASGYTFTHYSMDWVRQAPGQGLEWMGTIYPGNGDTSYNQKFKGRVTMTRDTSTSTVYMELSSLRSEDTAVYYCARGDLYALDYWGQGTLVTVSS VL: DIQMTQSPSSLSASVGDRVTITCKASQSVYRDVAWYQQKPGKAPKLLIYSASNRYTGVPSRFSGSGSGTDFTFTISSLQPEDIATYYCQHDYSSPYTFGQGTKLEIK
reported.result: 9.46
//
binder: hz18A10-VH + hz18A10-VLm17 (antibody, V domains shown, Constant regions not restated for this antibody) VH: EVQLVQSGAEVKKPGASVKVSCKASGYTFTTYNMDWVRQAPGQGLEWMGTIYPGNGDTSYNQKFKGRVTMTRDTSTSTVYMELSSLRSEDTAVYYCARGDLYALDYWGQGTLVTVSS VL: DIQMTQSPSSLSASVGDRVTITCKASQSVYRDVAWYQQKPGKAPKLLIYRASNRYTGVPSRFSGSGSGTDFTFTISSLQPEDIATYYCQHDYSSPYTFGQGTKLEIK
reported.result: 9.35
//
binder: hz18A10-VHm14 + hz18A10-VLm19 (antibody, V domains shown, Constant regions not restated for this antibody) VH: EVQLVQSGAEVKKPGASVKVSCKASGYTFTHYQMDWVRQAPGQGLEWMGTIYPGNGDTSYNQKFKGRVTMTRDTSTSTVYMELSSLRSEDTAVYYCARGDLYALDYWGQGTLVTVSS VL: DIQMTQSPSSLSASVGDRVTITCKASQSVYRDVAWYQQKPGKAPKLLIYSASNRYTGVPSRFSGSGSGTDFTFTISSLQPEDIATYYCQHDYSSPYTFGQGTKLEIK
reported.result: 9.17
